# key: entry, value: IC50
Molecular target: HLA A*3001 (Homo sapiens, UniProt P04439, D140H/D185E/E176W/F33S/G80R/H175R/K168Q/R138E/R41S)
Assay: biochemical
Where a SMILES comes first, the peptide text is derived from it.
Give the value, in units of nM, as a plain number.

{"Compound": "CC[C@H](C)[C@H](NC(=O)[C@H](CC(=O)O)NC(=O)[C@H](CC(C)C)NC(=O)[C@H](Cc1ccccc1)NC(=O)[C@@H](N)CC(C)C)C(=O)N[C@@H](CCC(=O)O)C(=O)N[C@@H](CS)C(=O)N[C@@H](Cc1c[nH]cn1)C(=O)N[C@@H](Cc1ccccc1)C(=O)O [3102.0932] (H-LFLDIECHF-OH)", "IC50 (nM)": 19}
{"Compound": "CC(C)C[C@H](NC(=O)[C@H](CC(N)=O)NC(=O)[C@H](CC(C)C)NC(=O)[C@H](CCCNC(=N)N)NC(=O)[C@H](CCCNC(=N)N)NC(=O)[C@H](CO)NC(=O)[C@H](CCCCN)NC(=O)[C@H](CO)NC(=O)[C@@H](N)CCCCN)C(=O)O [3102.0008] (H-KSKSRRLNL-OH)", "IC50 (nM)": 13}

Let us examine a further case.
Task: Would you kindly share the measured IC50 for CSCC[C@H](N)C(=O)N[C@@H](Cc1ccccc1)C(=O)N[C@@H](CCCNC(=N)N)C(=O)N[C@@H](CCCCN)C(=O)N[C@@H](CCCCN)C(=O)N[C@@H](CCCNC(=N)N)C(=O)N[C@@H](CC(C)C)C(=O)N[C@@H](Cc1ccccc1)C(=O)N[C@@H](CC(C)C)C(=O)O [3102.0580] (H-MFRKKRLFL-OH) ?
Output: 10
